Assay: Solubility profile of Compound 1 Form III in water, ethanol and methanol
Format: physicochemical
Details: organic solvent or mixture, thermodynamic from solid; ethanol, 50° C.
assay_endpoint: solubility

- CC1=C(O)C(=O)C=C2C1=CC=C1[C@@]2(C)CC[C@@]2(C)[C@@H]3C[C@](C)(C(=O)O)CC[C@]3(C)CC[C@]12C [Compound 1 Form III]: 33 to 38 mg/mL

###

Assay: XRPD under temperature and relative humidity
Format: physicochemical
Conditions: 25 to 100° C., RH set at 30%
assay_endpoint: XRPD under temperature: impact / new crystalline phase

* CC1=C(O)C(=O)C=C2C1=CC=C1[C@@]2(C)CC[C@@]2(C)[C@@H]3C[C@](C)(C(=O)O)CC[C@]3(C)CC[C@]12C [Compound 1 Form II] | No impact
* CC1=C(O)C(=O)C=C2C1=CC=C1[C@@]2(C)CC[C@@]2(C)[C@@H]3C[C@](C)(C(=O)O)CC[C@]3(C)CC[C@]12C [Compound 1 Form I] | No impact
